tested on: TO-3-N3 (biotin conjugate); assay: pull-down binding Z-score (relative to library population); higher = stronger binding; details: RNA library: Library-2
So basically, the class depends on measured pull-down binding Z-score, and the ranges are interval 1 = under -0.3, interval 2 = from -0.3 up to 0.08, interval 3 = 0.08 and over

{"columns": ["macromolecule.sequence", "answer.label"],
 "data": [
  ["CUUUUGUUCAAAUAAAAAUGCAAAAG [hsa-mir-651]", "interval 1"],
  ["GCAAUCAGGACUGGGUCAUUC [hsa-mir-6873]", "interval 3"],
  ["GGGGUGAAGAGGAUACUUACCUG [U1snRNP5ss-12]", "interval 3"],
  ["GAGACGCUUUUAAAGUCUC [hsa-mir-3926-2]", "interval 1"],
  ["AGCAUGCACUUAAUGUGGGUGUAUGU [hsa-mir-668]", "interval 3"],
  ["UCCUCUCCUGGUCUGGGAGGAUAGAAGAGAGGA [hsa-mir-5191]", "interval 2"],
  ["AAAAUUACUUUUGGUAAAUACAGUUUU [hsa-mir-559]", "interval 2"],
  ["UCCUGAUCUGAUGGAAGUCAUGA [hsa-mir-7843]", "interval 1"],
  ["GGGGCGUUUAUGCAACCC [IAV_invivo_PB1_2_Motif_33+IAV_invivo_PB1_2_Motif_33]", "interval 1"]
]}

* * *

system: TO-N3 (biotin conjugate); assay: pull-down binding Z-score (relative to library population); higher = stronger binding; conditions: RNA library: Library-2
Where pull-down binding Z-score equals or exceeds 0.1, the correct label is 1.0; where it does not, the label is 0.0.

{"columns": ["macromolecule.sequence", "answer.label"],
 "data": [
  ["CCUUCUCCUCUUUGCAGUGAUAAAGGAGG [hsa-mir-4460]", 0.0],
  ["GUGAACCUGAAUUUGCCUUGGGUUUCCU [hsa-mir-670]", 1.0],
  ["GGAAUUGUGUUAAUUGUGAUACAUUCU [SHAPE_invitro_SARS-CoV-2_Motif_150]", 0.0],
  ["AGUAUGGCUACAUACU [DMSMaPseq_invitro_SARS-CoV-2_Motif_53]", 0.0],
  ["GCAGCAAUAUGC [IAV_invivo_PA_3_Motif_2+IAV_invivo_PA_3_Motif_2]", 1.0],
  ["GCCCCAUUCCUUGAUCGGCUUCGCCGAGAUCAGAAAUCCCUAAGAGGAAGGGGC [IAV_invivo_NS1_NEP_8_Motif_3+IAV_invivo_NS1_NEP_8_Motif_3]", 0.0],
  ["CUGUUUCUGGUGAAAUAUUCAAACAG [hsa-mir-4433a]", 0.0],
  ["GGAAGGGCGCCUGUGCUUCGUCC [hsa-mir-572]", 1.0],
  ["CCUACUAAAAAGG", 1.0],
  ["UUUGCCAUUAAAAGUAACGACAAA [hsa-mir-548a-1]", 0.0],
  ["AUAGUUGAGGAGGACACCCAAGGAGAUCACUAU [hsa-let-7e]", 1.0],
  ["GGGUAGUGGUGAGCAUUGACC [IAV_invivo_PB2_1_Motif_22+IAV_invivo_PB2_1_Motif_22]", 1.0],
  ["GGGAGUGGUUCCAUCACGCCUCCUCAC [hsa-mir-483]", 1.0],
  ["CGAGGUGGGCUAGGCUCGGGCCCGUGGCG [hsa-mir-3656]", 1.0],
  ["CUGUGUGAGGACUAGAGGCGG [hsa-mir-4523]", 1.0],
  ["GCCAGCACAUGGUCCAGCCAAAAACAUGGAGUAUGAUGCUGUUGC [IAV_invivo_PB1_2_Motif_34+IAV_invivo_PB1_2_Motif_34]", 0.0],
  ["AUAGUUUUAGGGCAGGGAUUUUGCCCACAAGGAGGUAACUAU [hsa-let-7d]", 1.0],
  ["AGUCUGUCUCAUACCCAACCAGAUU [hsa-mir-205]", 1.0],
  ["CUGCAGAACAUUGCAG [hsa-mir-4310]", 0.0],
  ["GGUGUUUUAACUGCUGUGGUUAUACCUACUAAAAAGGCUGGUGGCACUACUGAAAUGCU", 0.0],
  ["GCGCAGCCAGAAACUGGCCGCGC [mismatch-AC]", 0.0],
  ["GAUGUUCUUGUUAACAACUAAACGAACAAUGUUUGUUUUUCUUGUUUUAUUGCCACUAGUCUCUAGUCAGUGUGUUAAUCUUACAACCAGAACUC [DMSMaPseq_invitro_SARS-CoV-2_Multi_63_ComplexLevel_1]", 1.0],
  ["GCUAGUGGGGGACAACCAAUCACUAAUUGUGUUAAGAUGUUGUGUACACACACUGGU", 1.0],
  ["GCAUAAAAACAACUUUUGGGGGACAGGUAUGUUUUCUUGC [hsa-mir-5047]", 1.0],
  ["UCAGACACAUCAGAUCCCUUAUCUGUAAAAUGGGCAUGA [hsa-mir-640]", 0.0],
  ["GGUUUCCUUCGGGGCAGGUGGGGACUGCUCCUUUGGGAGGAAGGAGGAGGCC [hsa-mir-4453]", 1.0],
  ["UGAAGAAGAGUAUUGAUUGUGCUGUUCG [hsa-mir-6788]", 1.0],
  ["AUGUCAUAUUGGAGUUGGACUGCAGGGCUUCCUUUACACAAUAAAUAUUGUAUGAAGUGCUGAUGUAACCUUUACUGCAGCAUGACAU [hsa-mir-3976]", 1.0],
  ["CCAGUAUGGUGG [IAV_invivo_PB1_2_Motif_36+IAV_invivo_PB1_2_Motif_36]", 0.0],
  ["AUGGAGGCUGCUUCUCCUCAGCAGCUGCCAUA [hsa-mir-3651]", 0.0],
  ["ACAGUGGCCACAUCUCCAC [hsa-mir-1184-3_1184-2_1184-1]", 1.0],
  ["CUAUACUGUUACUAGAUCAGGCAUUAGUGUCUGAUGUUGGUGAUAGUGCGG", 0.0],
  ["GGGGCUGGCUGGGUCUGGUAGUGGGCAUCAGCUGGCCCU [hsa-mir-1207]", 1.0],
  ["AUAGCACAAAGUCUUAUGGUACUGU [hsa-mir-3169]", 1.0],
  ["CCACGGGCUGGGCACAGUGG [hsa-mir-3159]", 1.0],
  ["UGGGCAGUUCUUCUGCUGG [hsa-mir-1587]", 1.0],
  ["GCUGUUUAAUAGGGGCUGAACAUGUCAACAACUCAUAUGAGUGUGACAUACCCAUUGGUGCAGGUAUAUGCGCUAGUUAUCAGACUCAGACUAAUUCUCCUCGGC", 1.0],
  ["GUGUUUUCUCCUUUAGAGAGAGCUG [hsa-mir-4299]", 0.0]
]}
